inhibition values, listed per item
biological target: Tyrosine-protein kinase CSK (Homo sapiens) (UniProt P41240); experiment: Inhibition of CSK (unknown origin) at 10 uM
Sequence (P41240 2-450 limits assumed): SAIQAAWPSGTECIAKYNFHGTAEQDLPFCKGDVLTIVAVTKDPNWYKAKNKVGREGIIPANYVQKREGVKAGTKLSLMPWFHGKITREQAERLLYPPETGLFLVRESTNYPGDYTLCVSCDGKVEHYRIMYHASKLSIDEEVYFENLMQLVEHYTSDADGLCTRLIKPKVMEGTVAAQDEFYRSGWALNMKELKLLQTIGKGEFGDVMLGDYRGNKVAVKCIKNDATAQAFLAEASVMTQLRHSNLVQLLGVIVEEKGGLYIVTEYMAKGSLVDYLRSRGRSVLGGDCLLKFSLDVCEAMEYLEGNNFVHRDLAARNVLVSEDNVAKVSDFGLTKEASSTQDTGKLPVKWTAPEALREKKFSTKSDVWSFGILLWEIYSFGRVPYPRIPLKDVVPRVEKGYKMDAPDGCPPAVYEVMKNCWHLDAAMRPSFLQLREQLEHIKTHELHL
# unit: % | format: bare number

Before answering, review these 5 worked examples.
QUERY: Fill in: inhibition of CN1CCN(CCCNc2ncc3cc(Oc4ccc(F)cc4F)c(=O)n(C)c3n2)CC1 is ___
RESULT: 4

QUERY: Fill in: inhibition of Cn1c(=O)c(Oc2ccc(F)cc2F)cc2cnc(Nc3ccc(N4CCC(O)CC4)cc3)nc21 is ___
RESULT: 34

QUERY: Fill in: inhibition of CN1CCN(c2ccc(Nc3ncc4cc(Oc5ccc(F)cc5F)c(=O)n(C)c4n3)cc2)CC1 is ___
RESULT: 20

QUERY: Fill in: inhibition of Cn1c(=O)c(Oc2ccc(F)cc2F)cc2cnc(NCCc3ccccn3)nc21 is ___
RESULT: 6

QUERY: Fill in: inhibition of Cn1c(=O)c(Oc2ccc(F)cc2F)cc2cnc(Nc3ccc(N4CCCCC4)cc3)nc21 is ___
RESULT: 15

***
QUERY: Fill in: inhibition of Cn1c(=O)c(Oc2c(Cl)cccc2Cl)cc2cnc(NC3CCOCC3)nc21 is ___
RESULT: 4

QUERY: Fill in: inhibition of CN1CCN(c2ccc(Nc3ncc4cc(Oc5c(Cl)cccc5Cl)c(=O)n(C)c4n3)cc2)CC1 is ___
RESULT: 8

QUERY: Fill in: inhibition of Cn1c(=O)c(Oc2ccc(F)cc2F)cc2cnc(NC3CCN(S(C)(=O)=O)CC3)nc21 is ___
RESULT: 5

QUERY: Fill in: inhibition of CN(C)CCNc1ncc2cc(Oc3ccc(F)cc3F)c(=O)n(C)c2n1 is ___
RESULT: 5
